tested on: influenza virus A/Taiwan/1/86 (H1N1); assay: organism not typed; format: cell-based; details: CPE in MDCK cells, three days post-virus exposure, ATPlite
READOUT_TYPE: IC50 (nM)

>>> print(df.to_string())
                                    compound  test_value
 0  Cc1cc(C(=O)N[C@@H]2CCC[C@H](Nc3nc(-c4c[nH]c5c(F)cc(Cl)cc45)ncc3F)C2)on1          15
 1  O=C(N[C@@H]1CCC[C@H](Nc2nc(-c3c[nH]c4c(F)cc(Cl)cc34)ncc2F)C1)c1ccccn1 [Compound 188]           5
 2  N#Cc1cc(F)c(N[C@@H]2CCC[C@H](NC(=O)N3CCCC3)C2)nc1-c1c[nH]c2c(F)cc(F)cc12 [Compound 163]         720
 3  Cc1cc(C(=O)N[C@@H]2CCC[C@H](Nc3nc(-c4c[nH]c5c(F)cc(F)cc45)ncc3F)C2)on1 (racemic)          21
 4  Cc1cc(C(=O)N[C@@H]2CCC[C@H](Nc3nc(-c4c[nH]c5c(F)cc(F)cc45)c(C#N)cc3F)C2)nn1C (racemic) [Compound 210]          12
 5  N#Cc1cc(F)c(N[C@H]2C3CCC(CC3)[C@@H]2C(=O)O)nc1-c1c[nH]c2c(F)cc(F)cc12 [Compound 215]         0.8
 6  Cc1cc(C(=O)N[C@@H]2CCC[C@H](Nc3nc(-c4c[nH]c5c(F)cc(F)cc45)c(C#N)cc3F)C2)nn1C [Compound 211]           4
 7  N#Cc1cc(F)c(N[C@H]2C3CCC(CC3)[C@@H]2C(=O)O)nc1-c1c[nH]c2c(F)cc(F)cc12 (mixture of isomers) [Compound 216]           2
 8  CC(=O)NCc1cc(F)c(N[C@H]2CCC[C@@H](NC(=O)c3cn(C)cn3)C2)nc1-c1c[nH]c2c(F)cc(F)cc12         170
 9  Cc1cc(C(=O)N[C@@H]2CCC[C@@H](Nc3nc(-c4c[nH]c5c(F)cc(F)cc45)c(C#N)cc3F)C2)on1          10
10  N#Cc1cc(F)c(N[C@@H]2CCC[C@H](NC(=O)N3CCCC3)C2)nc1-c1c[nH]c2c(F)cc(F)cc12 [Compound 162]         0.5
11  O=C(N[C@@H]1CCC[C@H](Nc2nc(-c3c[nH]c4c(F)cc(Cl)cc34)ncc2F)C1)c1ccccn1 (racemic) [Compound 27]          11
12  Cc1cc(C(=O)N[C@@H]2CCC[C@H](Nc3nc(-c4c[nH]c5c(F)cc(F)cc45)ncc3F)C2)nn1C           8
13  Cn1ccc(C(=O)N[C@@H]2CCC[C@@H](Nc3nc(-c4c[nH]c5c(F)cc(F)cc45)c(C#N)cc3F)C2)n1           3

---

experiment: in vitro; details: dog, TOX MDCK CC50
Quick reference for log10 CC50 at 3 days among some molecules
READOUT_TYPE: log10 CC50 at 3 days (log10 of the value in µM)

>>> print(df.to_string())
                                   molecule  test_value
0  O=C(N[C@@H]1CCC[C@H](Nc2nc(-c3c[nH]c4c(F)cc(F)cc34)ncc2F)C1)c1ncccc1O        1.00
1  CC(C)(C)C(CC(=O)O)Nc1nc(-c2c[nH]c3c(F)cc(F)cc23)ncc1F (racemic)        0.72
2  CC1(C(CC(=O)O)Nc2nc(-c3c[nH]c4c(F)cc(F)cc34)c(C#N)cc2F)CCCC1 (centres unmarked)       -1.22
3  Cc1ccnc(C(=O)N[C@@H]2CCC[C@H](Nc3nc(-c4c[nH]c5c(F)cc(F)cc45)ncc3F)C2)c1        0.98
4  Nc1nc(C(=O)N[C@@H]2CCC[C@H](Nc3nc(-c4c[nH]c5c(F)cc(F)cc45)ncc3F)C2)cs1        0.83
5  Cn1cnc(C(=O)N[C@H]2CCC[C@@H](Nc3nc(-c4c[nH]c5c(F)cc(Cl)cc45)c(C#N)cc3F)C2)c1 (racemic)        0.86
6  Cn1cc(C(=O)N[C@@H]2CCC[C@H](Nc3nc(-c4c[nH]c5c(F)cc(Cl)cc45)ncc3F)C2)cn1        0.64
7  Cc1cc(F)c2[nH]cc(-c3ncc(F)c(N[C@@H]4CCC[C@@H](NC(=O)N5CCCC5)C4)n3)c2c1 (racemic)        1.18
8  CCn1ccnc1C(=O)N[C@@H]1CCC[C@H](Nc2nc(-c3c[nH]c4c(F)cc(F)cc34)ncc2F)C1        1.01
9  Cc1cc(F)c2[nH]cc(-c3ncc(F)c(N[C@H](CC(=O)O)C(C)(C)C)n3)c2c1        1.01
